# Target Or Test System: H1047R PIK3CA enzyme (Homo sapiens, UniProt P42336, H1047R)
# Sequence (P42336 whole entry H1047R): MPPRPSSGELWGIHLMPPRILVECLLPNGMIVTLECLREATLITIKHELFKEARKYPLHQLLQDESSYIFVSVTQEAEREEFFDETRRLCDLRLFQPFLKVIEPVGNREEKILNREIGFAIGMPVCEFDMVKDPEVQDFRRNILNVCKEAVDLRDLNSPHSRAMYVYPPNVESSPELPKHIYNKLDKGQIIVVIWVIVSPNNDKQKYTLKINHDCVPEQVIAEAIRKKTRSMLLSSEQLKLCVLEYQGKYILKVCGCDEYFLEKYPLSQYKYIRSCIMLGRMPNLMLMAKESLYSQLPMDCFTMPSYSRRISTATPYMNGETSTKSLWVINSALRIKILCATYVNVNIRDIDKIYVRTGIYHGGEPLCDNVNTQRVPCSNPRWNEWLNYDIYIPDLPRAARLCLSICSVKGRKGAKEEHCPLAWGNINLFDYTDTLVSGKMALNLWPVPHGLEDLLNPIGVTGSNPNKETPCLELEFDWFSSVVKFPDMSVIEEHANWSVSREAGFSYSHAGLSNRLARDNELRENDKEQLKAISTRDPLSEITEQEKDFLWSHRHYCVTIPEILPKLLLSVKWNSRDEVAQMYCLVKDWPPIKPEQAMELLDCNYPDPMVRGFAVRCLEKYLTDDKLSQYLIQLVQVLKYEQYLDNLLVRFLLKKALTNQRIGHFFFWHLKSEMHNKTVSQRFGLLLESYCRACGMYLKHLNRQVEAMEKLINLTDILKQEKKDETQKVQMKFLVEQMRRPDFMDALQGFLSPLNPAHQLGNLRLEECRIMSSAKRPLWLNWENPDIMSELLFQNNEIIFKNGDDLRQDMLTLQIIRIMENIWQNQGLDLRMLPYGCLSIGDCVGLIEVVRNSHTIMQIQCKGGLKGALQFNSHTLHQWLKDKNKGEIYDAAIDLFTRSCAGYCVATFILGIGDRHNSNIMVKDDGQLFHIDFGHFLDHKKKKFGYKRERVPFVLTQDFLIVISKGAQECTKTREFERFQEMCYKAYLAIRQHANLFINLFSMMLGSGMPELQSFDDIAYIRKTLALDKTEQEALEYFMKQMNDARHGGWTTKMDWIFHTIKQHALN
# Sequence (P27986 whole entry partner): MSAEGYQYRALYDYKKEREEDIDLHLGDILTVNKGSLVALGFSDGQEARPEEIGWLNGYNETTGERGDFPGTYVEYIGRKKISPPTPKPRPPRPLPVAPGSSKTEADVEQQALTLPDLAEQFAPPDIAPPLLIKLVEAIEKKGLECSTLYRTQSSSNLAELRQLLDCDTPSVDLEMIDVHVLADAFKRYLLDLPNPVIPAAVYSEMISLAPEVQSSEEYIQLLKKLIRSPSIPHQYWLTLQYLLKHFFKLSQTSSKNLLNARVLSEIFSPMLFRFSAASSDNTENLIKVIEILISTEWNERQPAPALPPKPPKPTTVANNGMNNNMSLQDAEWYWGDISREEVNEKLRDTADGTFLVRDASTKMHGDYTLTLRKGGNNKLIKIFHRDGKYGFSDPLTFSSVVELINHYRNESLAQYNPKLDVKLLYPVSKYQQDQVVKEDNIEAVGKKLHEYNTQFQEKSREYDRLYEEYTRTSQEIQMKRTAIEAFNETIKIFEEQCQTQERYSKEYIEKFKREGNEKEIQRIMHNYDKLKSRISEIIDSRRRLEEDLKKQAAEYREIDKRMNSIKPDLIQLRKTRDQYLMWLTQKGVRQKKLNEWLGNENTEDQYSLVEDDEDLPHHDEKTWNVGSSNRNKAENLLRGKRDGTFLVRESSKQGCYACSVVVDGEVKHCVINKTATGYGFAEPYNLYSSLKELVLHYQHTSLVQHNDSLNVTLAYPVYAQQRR
# Experiment: ADP-Glo Biochemical PIK3CA Kinase Assay
pIC50: −log10 of the molar value.
Quantity: pIC50

CNc1cc(NC(=O)N2C[C@](O)(C(F)(F)F)c3cc(F)ccc32)c2c(n1)C(=O)N[C@@H]2c1cc(F)ccc1Cl (single isomer, unassigned)
≥ 7.00
O=C(Nc1cc(NC2=NC[C@@H](C(F)(F)F)O2)cc2c1[C@@H](c1cc(F)ccc1Cl)NC2=O)c1cc(F)cc(C(F)(F)F)c1 (single isomer, unassigned)
5.00 to 6.00
O=C1NC(c2cc(F)ccc2Cl)c2c1cc(-c1ccc3ncnn3c1)cc2-c1ccc2ccccc2c1 (stereo not drawn)
5.00 to 6.00
CC(=O)N1CCN(c2cc(-c3ccc4ncnn4c3)cc3c2C(c2cc(F)ccc2Cl)NC3=O)CC1 (stereo not drawn)
4.00 to 5.00

Bench note, H1047R PIK3CA enzyme (Homo sapiens, UniProt P42336, H1047R): entry CN(C)S(=O)(=O)Cc1cc(NC(=O)c2cc(F)cc(C(F)(F)F)c2)c2c(c1)C(=O)NC2c1cc(F)ccc1Cl (stereo not drawn) , its pIC50 = ≥ 7.00

Bench note, H1047R PIK3CA enzyme (Homo sapiens, UniProt P42336, H1047R): entry O=C1NC(C2CCCCC2)c2c(NC(=O)c3nsc4ccccc34)cccc21 (stereo not drawn) , its pIC50 = 6.30 to 7.00
